- Tested on: U2OS
- testName: Incucyte cell viability with U2OS; note: unitless GR value; below 1 slowed growth and below 0 cell loss
- Assay type: toxicity, cell-based
- runConditions: human, 12 h, 10 µM, compound concentration 10 uM, replicate number 2
# binarize Growth Rate: threshold 0.9 inclusive, high side true (1), low side false (0)

Field: example entries. Status: answers known.
S=c1[nH]nc(-c2cccs2)n1-c1ccccc1
false (0)
CN(C)C/C=C/C(=O)Nc1ccc(C(=O)Nc2cccc(Nc3ncc(Cl)c(-c4c[nH]c5ccccc45)n3)c2)cc1
false (0)
Cn1cc(C(=O)O)c2ccc(N3CCC(OCc4c(-c5c(Cl)cccc5Cl)noc4C4CC4)CC3)cc21 [TERN-101]
true (1)

Is the recorded value of Growth Rate equal to or greater than 0.9 for this compound? CC(=O)Nc1nc(CN2CCC[C@H](Cc3cc(C)nc(C)c3)C2)cs1 [JNJ-73924149]
false (0)

Recorded values, source ChEMBL document CHEMBL5303304.
